Recorded combination Emax, one value per entry.
System: HCC70 (Breast Carcinoma)
Measurement Notes: combination Emax (second highest fraction inhibited in the dose matrix, 72 h); higher = more inhibition; extreme values may be limits of the assay
Metric: combination Emax

[[record]]
compound = "C=CCn1c(=O)c2cnc(Nc3ccc(N4CCN(C)CC4)cc3)nc2n1-c1cccc(C(C)(C)O)n1 [AZD1775] + CCc1c2c(nc3ccc(O)cc13)-c1cc3c(c(=O)n1C2)COC(=O)[C@]3(O)CC [SN-38] (first compound max 1 µM, partner max 0.3 µM)"
result_number = 0.537

[[record]]
compound = "CN(CCO)CC[C@H](CSc1ccccc1)Nc1ccc(S(=O)(=O)NC(=O)c2ccc(N3CCC([C@@H](O)c4ccccc4-c4ccc(Cl)cc4)CC3)cc2)cc1S(=O)(=O)C(F)(F)F [AZD4320] + CC(=O)O[C@H]1C(=O)[C@@]2(C)[C@H]([C@H](OC(=O)c3ccccc3)[C@]3(O)C[C@H](OC(=O)[C@H](O)[C@@H](NC(=O)c4ccccc4)c4ccccc4)C(C)=C1C3(C)C)[C@]1(OC(C)=O)CO[C@@H]1C[C@@H]2O [Paclitaxel] (first compound max 1 µM, 7x7, partner max 3 µM)"
result_number = 0.875

[[record]]
compound = "CN(CCO)CC[C@H](CSc1ccccc1)Nc1ccc(S(=O)(=O)NC(=O)c2ccc(N3CCC([C@@H](O)c4ccccc4-c4ccc(Cl)cc4)CC3)cc2)cc1S(=O)(=O)C(F)(F)F [AZD4320] + Nc1ccn([C@@H]2O[C@H](CO)[C@@H](O)C2(F)F)c(=O)n1 [Gemcitabine] (first compound max 1 µM, 7x7, partner max 0.3 µM)"
result_number = 0.507

[[record]]
compound = "CC1(C)CCC(CN2CCN(c3ccc(C(=O)NS(=O)(=O)c4ccc(NCC5CCOCC5)c([N+](=O)[O-])c4)c(Oc4cnc5[nH]ccc5c4)c3)CC2)=C(c2ccc(Cl)cc2)C1 [Venetoclax] + CCN(CCO)CCCOc1ccc2c(Nc3cc(CC(=O)Nc4cccc(F)c4)[nH]n3)ncnc2c1 [AZD2811] (first compound max 1 µM, 7x7, partner max 1 µM)"
result_number = 0.616

[[record]]
compound = "N#Cc1cnc(Nc2cc(NC[C@H]3CNCCO3)c(C(F)(F)F)cn2)cn1 [SRA737] + CCc1c2c(nc3ccc(O)cc13)-c1cc3c(c(=O)n1C2)COC(=O)[C@]3(O)CC [SN-38] (first compound max 10 µM, 7x7, partner max 0.3 µM)"
result_number = 0.674

[[record]]
compound = "CC1(C)CCC(CN2CCN(c3ccc(C(=O)NS(=O)(=O)c4ccc(NCC5CCOCC5)c([N+](=O)[O-])c4)c(Oc4cnc5[nH]ccc5c4)c3)CC2)=C(c2ccc(Cl)cc2)C1 [Venetoclax] + C=CCn1c(=O)c2cnc(Nc3ccc(N4CCN(C)CC4)cc3)nc2n1-c1cccc(C(C)(C)O)n1 [AZD1775] (first compound max 1 µM, partner max 1 µM)"
result_number = 0.805

[[record]]
compound = "C[C@@H](Oc1cc(-c2cnn(C3CCNCC3)c2)cnc1N)c1c(Cl)ccc(F)c1Cl [Crizotinib] + Cn1cnc2c(F)c(Nc3ccc(Br)cc3Cl)c(C(=O)NOCCO)cc21 [Selumetinib] (first compound max 10 µM, 7x7, partner max 10 µM)"
result_number = 0.448

[[record]]
compound = "O=C(c1cc(Cc2n[nH]c(=O)c3ccccc23)ccc1F)N1CCN(C(=O)C2CC2)CC1 [Olaparib] + CC1(C)CCC(CN2CCN(c3ccc(C(=O)NS(=O)(=O)c4ccc(NCC5CCOCC5)c([N+](=O)[O-])c4)c(Oc4cnc5[nH]ccc5c4)c3)CC2)=C(c2ccc(Cl)cc2)C1 [Venetoclax] (first compound max 10 µM, 7x7, partner max 1 µM)"
result_number = 0.141

[[record]]
compound = "CN(CCO)CC[C@H](CSc1ccccc1)Nc1ccc(S(=O)(=O)NC(=O)c2ccc(N3CCC([C@@H](O)c4ccccc4-c4ccc(Cl)cc4)CC3)cc2)cc1S(=O)(=O)C(F)(F)F [AZD4320] + C[C@@H](Nc1cc(F)cc(F)c1)c1cc(C(=O)N(C)C)cc2c(=O)cc(N3CCOCC3)oc12 [AZD8186] (first compound max 1 µM, 7x7, partner max 3 µM)"
result_number = 0.781


----------
System: COLO-792 (Melanoma);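 further: after 72 h of two-drug dosing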
Measurement Notes: Bliss excess, mean over the matrix (fraction); higher = more synergy
Metric: Bliss excess

[[record]]
compound = "COc1cccc2c1C(=O)c1c(O)c3c(c(O)c1C2=O)C[C@@](O)(C(=O)CO)C[C@@H]3O[C@H]1C[C@H](N)[C@H](O)[C@H](C)O1 [Doxorubicin] + Cc1cc2ncnn2cc1Nc1ncc2c(n1)n(C1CCOCC1)c(=O)n2C [AZD7648] (first compound max 1 µM, 7x7, partner max 10 µM)"
result_number = -0.0081

[[record]]
compound = "COc1cccc(OCCCN)c1-c1cc(Nc2cnc(C#N)cn2)n[nH]1 [Prexasertib] + C[C@@H]1COCCN1C2=NC(=NC(=C2)C3(CC3)[S@](=N)(=O)C)C4=C5C=CNC5=NC=C4 [AZD6738] (first compound max 1 µM, 7x7, partner max 10 µM)"
result_number = -0.0376

[[record]]
compound = "COc1cccc(OCCCN)c1-c1cc(Nc2cnc(C#N)cn2)n[nH]1 [Prexasertib] + O=C(c1cc(Cc2n[nH]c(=O)c3ccccc23)ccc1F)N1CCN(C(=O)C2CC2)CC1 [Olaparib] (first compound max 1 µM, 7x7, partner max 10 µM)"
result_number = 0.0173

[[record]]
compound = "Cc1cc2ncnn2cc1Nc1ncc2c(n1)n(C1CCOCC1)c(=O)n2C [AZD7648] + CCN(CCO)CCCOc1ccc2c(Nc3cc(CC(=O)Nc4cccc(F)c4)[nH]n3)ncnc2c1 [AZD2811] (first compound max 10 µM, 7x7, partner max 1 µM)"
result_number = -0.0769

[[record]]
compound = "CC1(C)CCC(CN2CCN(c3ccc(C(=O)NS(=O)(=O)c4ccc(NCC5CCOCC5)c([N+](=O)[O-])c4)c(Oc4cnc5[nH]ccc5c4)c3)CC2)=C(c2ccc(Cl)cc2)C1 [Venetoclax] + C1CN(CCC1(C(=O)N[C@@H](CCO)C2=CC=C(C=C2)Cl)N)C3=NC=NC4=C3C=CN4 [Capivasertib] (first compound max 1 µM, 7x7, partner max 3 µM)"
result_number = -0.0203

[[record]]
compound = "CC1(C)CCC(CN2CCN(c3ccc(C(=O)NS(=O)(=O)c4ccc(NCC5CCOCC5)c([N+](=O)[O-])c4)c(Oc4cnc5[nH]ccc5c4)c3)CC2)=C(c2ccc(Cl)cc2)C1 [Venetoclax] + CCN(CCO)CCCOc1ccc2c(Nc3cc(CC(=O)Nc4cccc(F)c4)[nH]n3)ncnc2c1 [AZD2811] (first compound max 1 µM, 7x7, partner max 1 µM)"
result_number = -0.0048

[[record]]
compound = "Cc1c2c(nn1C)CSCc1cc(n(C)n1)CSc1cc(c3ccccc3c1)OCCCc1c(C(=O)O)n(C)c3c-2c(Cl)ccc13 [AZD5991] + CN(C)CCCOc1ccc(-c2ccc3ncc4c(c3c2)n(C2CCOCC2)c(=O)n4C)cn1 [AZD0156] (first compound max 1 µM, 7x7, partner max 1 µM)"
result_number = 0.0191

[[record]]
compound = "CC1(C)CCC(CN2CCN(c3ccc(C(=O)NS(=O)(=O)c4ccc(NCC5CCOCC5)c([N+](=O)[O-])c4)c(Oc4cnc5[nH]ccc5c4)c3)CC2)=C(c2ccc(Cl)cc2)C1 [Venetoclax] + C[C@@H](Nc1cc(F)cc(F)c1)c1cc(C(=O)N(C)C)cc2c(=O)cc(N3CCOCC3)oc12 [AZD8186] (first compound max 1 µM, 7x7, partner max 3 µM)"
result_number = 0.0036

[[record]]
compound = "CC(=O)c1c(C)c2cnc(Nc3ccc(N4CCNCC4)cn3)nc2n(C2CCCC2)c1=O [Palbociclib] + CC1(C)CCC(CN2CCN(c3ccc(C(=O)NS(=O)(=O)c4ccc(NCC5CCOCC5)c([N+](=O)[O-])c4)c(Oc4cnc5[nH]ccc5c4)c3)CC2)=C(c2ccc(Cl)cc2)C1 [Venetoclax] (first compound max 10 µM, 7x7, partner max 1 µM)"
result_number = 0.0153

[[record]]
compound = "Cc1c2c(nn1C)CSCc1cc(n(C)n1)CSc1cc(c3ccccc3c1)OCCCc1c(C(=O)O)n(C)c3c-2c(Cl)ccc13 [AZD5991] + Cn1cnc2c(F)c(Nc3ccc(Br)cc3Cl)c(C(=O)NOCCO)cc21 [Selumetinib] (first compound max 1 µM, 7x7, partner max 3 µM)"
result_number = 0.0234

[[record]]
compound = "C=CCn1c(=O)c2cnc(Nc3ccc(N4CCN(C)CC4)cc3)nc2n1-c1cccc(C(C)(C)O)n1 [AZD1775] + O=C(c1cc(Cc2n[nH]c(=O)c3ccccc23)ccc1F)N1CCN(C(=O)C2CC2)CC1 [Olaparib] (first compound max 1 µM, partner max 10 µM)"
result_number = -0.0241

[[record]]
compound = "COc1nnc2ccc(N3CCC(c4ccc(OCCN5CCN(C)C(=O)[C@H]5C)cc4)CC3)nn12 [AZD5153] + Cn1cnc2c(F)c(Nc3ccc(Br)cc3Cl)c(C(=O)NOCCO)cc21 [Selumetinib] (first compound max 1 µM, 7x7, partner max 10 µM)"
result_number = -0.055

[[record]]
compound = "CC1(C)CCC(CN2CCN(c3ccc(C(=O)NS(=O)(=O)c4ccc(NCC5CCOCC5)c([N+](=O)[O-])c4)c(Oc4cnc5[nH]ccc5c4)c3)CC2)=C(c2ccc(Cl)cc2)C1 [Venetoclax] + C=CCn1c(=O)c2cnc(Nc3ccc(N4CCN(C)CC4)cc3)nc2n1-c1cccc(C(C)(C)O)n1 [AZD1775] (first compound max 1 µM, partner max 1 µM)"
result_number = 0.021

